system: THP-1; experiment: Proliferation assay, CellTiter-Glo, 72 hour; type: cell-based; details: blood cancer cell line, read-out: Inhibition of proliferation, THP-1
Observation type: IC50

[[record]]
molecule_smiles = "CN(C)C/C=C/C(=O)Nc1ccc(C(=O)Nc2cccc(Nc3ncc(Cl)c(-c4c[nH]c5ccccc45)n3)c2)cc1"
observation_type = "IC50"
result = "< 500 nM"


Which measured IC50 value corresponds to `Cc1ccc(Nc2ncc(C)c(-c3c[nH]c4ccccc34)n2)cc1NC(=O)c1ccc(NC(=O)/C=C/CN(C)C)cc1` ?
< 500 nM

###

Tested on: patient-derived chronic lymphocytic leukemia (CLL) isolates
Test: Cell death of patient-derived CLL isolates, Annexin V staining, 24 hour
Format: cell-based, human
Details: read-out: Pro-death signaling, average EC50 values
Procedure: Clinical isolates of CLL were cultured with compounds of Formula (I) or flavopiridol and assessed for cell death after a 24 hour time course by Annexin V staining. […] Anti-proliferative effect was measured using cell titer glo analysis. PBMCs freshly isolated from peripheral blood are seeded in 24 well plates at a volume of 0.5 ml and a concentration of 2×10^6 cells/ml. […] Apoptosis was measured in all cells from each well using the Annexin V: FITC Apoptosis Detection Kit I (BD Biosciences). […]
Observation type: EC50

Which measured EC50 value corresponds to `CN(C)C/C=C/C(=O)Nc1ccc(C(=O)Nc2cccc(Nc3ncc(Cl)c(-c4c[nH]c5ccccc45)n3)c2)cc1` ?
< 0.2 µM

Source listed as patent US10787436B2.
